# Lookup of reported Plant response rating, Barley, Spring keyed by entry
tested on: barley, spring (spring barley, Hordeum vulgare); assay: Test D controlled growth environment herbicide test, pre- and postemergence; format: in vivo; settings: Postemergence, 125 g ai/ha; visual rating on scale 0 (no effect) to 100 (complete control), 14 to 21 d
Keep it simple and answer with nothing but the number.

Here's what some known entries look like.
| chemical-string | assay-metric | observed-measurement |
| --- | --- | --- |
| CCOC(=O)Oc1c(C)nn(C)c(=O)c1-c1c(C)sc2ccc(C)cc12 | Plant response rating, Barley, Spring | 0 |
| CCC(=O)Oc1c(C)nn(C)c(=O)c1-c1c(C)sc2c(C)cc(C)cc12 | Plant response rating, Barley, Spring | 5 |
| CC(=O)Oc1c(C)nn(C)c(=O)c1-c1c(C)sc2ccc(C)cc12 | Plant response rating, Barley, Spring | 0 |

According to the records, this compound Cc1cc(C)c2sc(C)c(-c3c(OC(=O)OCCCl)c(C)nn(C)c3=O)c2c1 displays Plant response rating, Barley, Spring of 15

# compound CCOC(=O)Oc1c(C)nn(C)c(=O)c1-c1c(C)sc2c(C)cc(C)cc12 ; its Plant response rating, Barley, Spring = 5

Record COC(=O)Oc1c(C)nn(C)c(=O)c1-c1c(C)sc2c(C)cc(C)cc12 . Reported Plant response rating, Barley, Spring: 0
